Values from patent US20250270304A1

- subject of test: T1, Activin B (Homo sapiens (Human), UniProt P09529 293-407)
- T1 construct: also called Mature Activin B; mature Activin B
- T1 sequence: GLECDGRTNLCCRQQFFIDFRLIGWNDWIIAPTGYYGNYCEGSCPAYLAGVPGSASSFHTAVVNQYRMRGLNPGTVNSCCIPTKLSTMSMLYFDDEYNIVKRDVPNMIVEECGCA
- assay remarks: ELISA, coated antigen, OD450
Some binders, each annotated with its measured fold-change of OD 450 over negative control (BSA).
Write the number in fold without appending the unit.

AB465 (antibody, IgG1, V domains shown) VH: QVQLQESGPGLVKPSQTLSLTCTVSGASVSNARTGVNWIRQPPGKGLEWIGYINPSGRIDYNPSLKSRVTMSVDTSKNQFSLKVNSVTAADTAVYYCARAGYPDVWGKGTTVTVSS VL: EIVMTQSPATLSLSPGERATLSCRASQTVSSHLAWYQQKPGQAPRLLIYDVSHRASGIPARFSGSGSGTDFTLTISSLEPEDFAVYYCQQYFTLPTFGGGTKVEIK	0.87

As a next step, examine the binder that follows.
Enquiry: Item AB330 (antibody, IgG1, V domains shown, also called mAb 330) VH: QVQLVQSGAEVKKPGASVKVSCKVSGYPSPATISWVRQAPGKGLEWMGWMNPKSGYTNYAQKFQGRVTMTEDTSTDTAYMELSSLKSEDTAVYYCATLHGSGLAFDIWGQGTMVTVSS VL: DIQMTQSPSSVSASVGDRVTITCRASQDIKSDLAWYQQKPGKAPKLLIYRASARESGVPSRFSGSGSGTDFTLTISSLQPEDFANYYCQQYRSFPWSFGGGTKVEIK : provide fold-change of OD 450 over negative control (BSA)
Return: 0.61
